System: BDF1 mice, P388 leukemia ip, median survival T/C
Protocol text: NCI In Vivo Anticancer Drug Screen. Data for tumor model P388 Leukemia (intraperitoneal) in B6D2F1 (BDF1) mice
Cond: endpoint: median survival time; dose: 400.0 mg/kg/injection; schedule: Q01DX009 (ip); vehicle: Klucel (hydroxypropylcellulose) (HPC)
Inconclusive results and toxic doses are left out. The calls were made as follows: active = survival T/C of 150% or more; inactive = T/C below 125% in these data.
Respond with a class label; see y (active), n (inactive)

# Compound, System name, Assigned category
data = [
    ("CN1CC(=O)N=C1N", "BDF1 mice, P388 leukemia ip, median survival T/C", "n"),
]

Req: I would be grateful if you could indicate the recorded call for `COc1cc2c(cc1O)C(=O)CCCC2` .
Resp: n

Req: Next entry: CC(O)c1ccc(-c2ccccc2)cc1 (configuration not stated)
Resp: n

Req: Next entry: `N#CCCC1(CCC#N)c2ccccc2-c2ccccc21`
Resp: n

Req: Next entry: `O=[N+]([O-])c1cc2c3ccccc3ccc2c2ccccc12`
Resp: n

Req: Next entry: CC1C/C=C2\CSC(NC(=O)/C3=C\N(C/C=C/C=C/C(O)CC(O)CC(=O)N3)C2=O)C(=O)O1 (configuration not stated)
Resp: n
